Hey, just so you know, these numbers are from patent US11712438B2.

# pIC50 per entry for EP2 (Homo sapiens)
Value format note: pIC50 is -log10 of concentration (mol/L); just state the number.

1) CCOc1cc(-c2cc(NCCc3cc(Br)ccc3OC)ncn2)sc1C(=O)O: 7.15
2) O=C(O)c1[nH]c(-c2cc(NCCc3c(F)cc(Br)cc3F)ncn2)cc1C1CC1: 6.82
3) CCOc1cc(-c2cc(NCCc3cccc(OC)c3OC)ncn2)sc1-c1noc(=O)[nH]1: 7.77

Let us examine a further case.
Let me check: `CCOc1cc(-c2cc(NCCc3c(F)cc(Br)cc3F)ncn2)sc1C(=O)NS(C)(=O)=O` , system EP2 (Homo sapiens), measured pIC50 is 8.10
